# assayed_system: AXL (human catalytic domain) (Homo sapiens)
# Construct: purchased Upstate Ltd. 14-512
# Sequence (P30530 473-894): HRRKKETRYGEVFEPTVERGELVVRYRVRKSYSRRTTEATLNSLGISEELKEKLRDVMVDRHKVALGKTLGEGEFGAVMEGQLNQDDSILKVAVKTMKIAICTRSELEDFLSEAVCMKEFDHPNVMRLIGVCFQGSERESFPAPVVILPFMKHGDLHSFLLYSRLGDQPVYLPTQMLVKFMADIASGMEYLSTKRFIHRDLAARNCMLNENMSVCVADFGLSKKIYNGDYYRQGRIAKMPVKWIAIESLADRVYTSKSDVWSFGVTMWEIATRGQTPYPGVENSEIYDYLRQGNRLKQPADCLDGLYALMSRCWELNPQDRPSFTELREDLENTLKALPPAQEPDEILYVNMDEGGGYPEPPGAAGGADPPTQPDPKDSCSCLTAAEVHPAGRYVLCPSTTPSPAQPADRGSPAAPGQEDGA
# measurement_notes: AXL (human catalytic domain) Enzyme Activity Assay (IMAP fluorescence polarisation)
# Type: biochemical
# conditions: further data set (WW-001 through WW-169, XX-001 through XX-469, YY-001 through YY-016, ZZ-001 through ZZ-003); 150 μM ATP
pIC50: −log10 of the molar value.
pIC50: recorded values
metric: pIC50

smiles_entry: Cc1c(-c2cccc3nc(NC(=O)C4CC4)nn23)cnn1-c1ccccc1
metric: pIC50
value_observed: 5.00 to 6.00
--
smiles_entry: O=C(Nc1ccc(Cl)cc1)Nc1cccc(-c2cccc3nc(Nc4ccc(OCCN5CCCC5)cc4)nn23)c1
metric: pIC50
value_observed: 5.00 to 6.00
--
smiles_entry: Cn1cc(-c2cccc(-c3cccc4nc(Nc5ccc(OCCN6CCCC6)cc5)nn34)c2)cn1
metric: pIC50
value_observed: 6.00 to 7.00
--
smiles_entry: O=C(Nc1nc2cccc(-c3ccc4c(c3)OCCCO4)n2n1)C1CC1
metric: pIC50
value_observed: 5.00 to 6.00

* * *

# assayed_system: AXL (human catalytic domain) (Homo sapiens)
# Construct: purchased Upstate Ltd. 14-512
# measurement_notes: AXL (human catalytic domain) Enzyme Activity Assay (IMAP fluorescence polarisation)
# Format: biochemical
# conditions: first data set; recombinant AXL isoform 1 aa473-894, 150 μM ATP
pIC50: −log10 of the molar value.
pIC50: recorded values
metric: pIC50

smiles_entry: O=C(Nc1nc2cccc(-c3ccc(-c4ccccc4)cc3)n2n1)C1CC1
metric: pIC50
value_observed: > 6.00
--
smiles_entry: O=C(Nc1nc2cccc(-c3ccc(N4CCOCC4)cc3)n2n1)C1CC1
metric: pIC50
value_observed: > 6.00
--
smiles_entry: CN(C)CCOc1ccc(Nc2nc3cccc(-c4ccc5c(c4)OCCO5)n3n2)cc1
metric: pIC50
value_observed: > 6.00
--
smiles_entry: O=C(Nc1nc2cccc(-c3cccc(O)c3)n2n1)C1CC1
metric: pIC50
value_observed: 5.00 to 6.00
--
smiles_entry: CN(C)CCNC(=O)c1ccc(Nc2nc3cccc(-c4ccc5c(c4)OCO5)n3n2)cc1
metric: pIC50
value_observed: > 6.00
--
smiles_entry: COc1cccc(COc2ccc(-c3cccc4nc(NC(=O)C5CC5)nn34)cc2)c1
metric: pIC50
value_observed: 5.00 to 6.00
--
smiles_entry: Cc1cc(Nc2nc3cccc(-c4ccc5c(c4)OCCO5)n3n2)ccc1OCC(N)=O
metric: pIC50
value_observed: 5.00 to 6.00
--
smiles_entry: COCc1ccc(-c2cccc3nc(NC(=O)C4CC4)nn23)cc1
metric: pIC50
value_observed: 5.00 to 6.00
--
smiles_entry: CN(C)CCOc1cc(Nc2nc3cccc(-c4ccc5c(c4)OCCO5)n3n2)ccn1
metric: pIC50
value_observed: > 6.00
--
smiles_entry: COCCNCCOc1ccc(Nc2nc3cccc(-c4ccc(OC)cc4)n3n2)cc1
metric: pIC50
value_observed: > 6.00
--
smiles_entry: COc1ccc(-c2nccc3nc(Nc4ccc(OCCN5CCCCC5)cc4)nn23)cc1
metric: pIC50
value_observed: > 6.00
--
smiles_entry: COc1ccc(-c2cccc3nc(Nc4ccc(C(=O)NCCN(C)C)cc4)nn23)cc1
metric: pIC50
value_observed: > 6.00
--
smiles_entry: O=C(Nc1nc2cccc(-c3ccc(F)c(F)c3)n2n1)C1CC1
metric: pIC50
value_observed: 5.00 to 6.00
--
smiles_entry: O=C(Nc1nc2cccc(-c3ccsc3)n2n1)C1CC1
metric: pIC50
value_observed: > 6.00
--
smiles_entry: O=C(Nc1nc2cccc(-c3ccc4occc4c3)n2n1)C1CC1
metric: pIC50
value_observed: > 6.00
--
smiles_entry: CN1CCOc2cc(-c3cccc4nc(NC(=O)C5CC5)nn34)ccc21
metric: pIC50
value_observed: > 6.00
--
smiles_entry: CN(C)CCOc1ncc(Nc2nc3cccc(-c4ccc5c(c4)OCCO5)n3n2)cn1
metric: pIC50
value_observed: > 6.00
--
smiles_entry: NCCCNc1ccc(-c2cccc3nc(NC(=O)C4CC4)nn23)cc1
metric: pIC50
value_observed: 5.00 to 6.00
--
smiles_entry: c1cc(-c2ccc3c(c2)OCCO3)n2nc(Nc3ccc(OCCN4CCCCC4)cc3)nc2c1
metric: pIC50
value_observed: > 6.00
--
smiles_entry: O=C(Nc1nc2cccc(-c3ccc(OC(F)(F)F)cc3)n2n1)C1CC1
metric: pIC50
value_observed: 5.00 to 6.00
--
smiles_entry: COc1ccc(-c2cccc3nc(Nc4ccc(OCCN(C)Cc5ccccc5)cc4)nn23)cc1
metric: pIC50
value_observed: > 6.00
--
smiles_entry: CC(C)Oc1ccc(-c2cccc3nc(Nc4ccc(OCCN5CCCC5)cc4)nn23)cc1
metric: pIC50
value_observed: > 6.00
--
smiles_entry: CNc1ccc(Nc2nc3cccc(-c4ccc(OC)cc4)n3n2)cc1
metric: pIC50
value_observed: 5.00 to 6.00
--
smiles_entry: O=C(Nc1nc2cccc(-c3ccc(O)cc3)n2n1)C1CC1
metric: pIC50
value_observed: > 6.00
--
smiles_entry: NCCNc1ccc(-c2cccc3nc(NC(=O)C4CC4)nn23)cc1
metric: pIC50
value_observed: 5.00 to 6.00
--
smiles_entry: CCc1nnc(NCCOc2ccc(Nc3nc4cccc(-c5ccc(OC)cc5)n4n3)cc2)[nH]1
metric: pIC50
value_observed: > 6.00
--
smiles_entry: COc1ccc(-c2cccc3nc(NC(=O)C4CC4)nn23)c(OC)c1
metric: pIC50
value_observed: 5.00 to 6.00
--
smiles_entry: CCS(=O)(=O)n1cc(-c2cccc3nc(NC(=O)C4CC4)nn23)cn1
metric: pIC50
value_observed: 5.00 to 6.00
--
smiles_entry: COc1ccc(-c2cccc3nc(Nc4cccc(OCCCN)c4)nn23)cc1
metric: pIC50
value_observed: > 6.00
--
smiles_entry: COc1ccc(-c2cccc3nc(Nc4cccc(OCCN5CCOCC5)c4)nn23)cc1
metric: pIC50
value_observed: > 6.00
--
smiles_entry: COc1ccc(-c2cccc3nc(NC(=O)C4CC4)nn23)cc1F
metric: pIC50
value_observed: 5.00 to 6.00
--
smiles_entry: COc1ccc(-c2cccc3nc(NCC4CC4)nn23)cc1
metric: pIC50
value_observed: 5.00 to 6.00
--
smiles_entry: COc1ccc(-c2cccc3nc(Nc4ccc(OCCN5CCCC5)c(OC)c4)nn23)cc1
metric: pIC50
value_observed: > 6.00
--
smiles_entry: O=C(Nc1nc2cccc(-c3ccc(F)c(O)c3)n2n1)C1CC1
metric: pIC50
value_observed: > 6.00
--
smiles_entry: O=C(Nc1nc2cccc(-c3cnc4ccccc4c3)n2n1)C1CC1
metric: pIC50
value_observed: 5.00 to 6.00
--
smiles_entry: O=C(Nc1nc2cccc(NCc3ccccc3Cl)n2n1)C1CC1
metric: pIC50
value_observed: 5.00 to 6.00
--
smiles_entry: O=C(Nc1nc2cccc(-c3ccc(N4CCNCC4)cc3)n2n1)C1CC1
metric: pIC50
value_observed: 5.00 to 6.00
--
smiles_entry: COc1ccc(-c2cccc3nc(NC(=O)C4CC4)nn23)cc1
metric: pIC50
value_observed: > 6.00
